assay: total protein half-life in vivo (active degradation + dilution); higher = more stable protein; conditions: wild type E. coli NCM3722; growth: C-lim chemostat; doubling time 12 h
Please go through the items and note down their total protein half-life in vivo.
Answers are plain numbers, in h.

SEQUENCE TEXT	total protein half-life in vivo / h
MTMNSFERRNKIIQLVNEQGTVLVQDLAGVFAASEATIRADLRFLEQKGVVTRFHGGAAKIMSGNSETETQEVGFKERFQLASAPKNRIAQAAVKMIHEGMTDPTHVIWTQA	12.4
MVRIYTLTLAPSLDSATITPQIYPEGKLRCTAPVFEPGGGGINVARAIAHLGGSATAIFPAGGATGEHLVSLLADENVPVATVEAKDWTRQNLHVHVEASGEQYRFVMPGAALNEDEFRQLEEQVLEIESGAILVISGSLPPGVKLEKLTQLISAAQKQGIRCIVDSSGEALSAALAIGNIELVKPNQKELSALVNRELTQPDDVRKAAQEIVNSGKAKRVVVSLGPQGALGVDSENCIQVVPPPVKSQSTVGAGDSMVGAMTLKLAENASLEEMVRFGVAAGSAATLNQGTRLCSHDDTQKIYAYLSR	10.7

Shifting focus to the sequence that follows.
Looking up MSHLKDPTTQYYTGEYPKQKQPTPGIQAKMTPVPDCGEKTYVGSGRLKDRKALVTGGDSGIGRAAAIAYAREGADVAISYLPVEEEDAQDVKKIIEECGRKAVLLPGDLSDEKFARSLVHEAHKALGGLDIMALVAGKQVAIPDIADLTSEQFQKTFAINVFALFWLTQEAIPLLPKGASIITTSSIQAYQPSPHLLDYAATKAAILNYSRGLAKQVAEKGIRVNIVAPGPIWTALQISGGQTQDKIPQFGQQTPMKRAGQPAELAPVYVYLASQESSYVTAEVHGVCGGEHLG [P0AG84] , I found its total protein half-life in vivo recorded as 11.4

Cited source: the supplement of paper PMC11246515
